- tgt: P. falciparum apicoplast DNA polymerase (Pf-apPOL) (Plasmodium falciparum, UniProt Q8ILY1)
- Sequence (Q8ILY1 entry or part of it): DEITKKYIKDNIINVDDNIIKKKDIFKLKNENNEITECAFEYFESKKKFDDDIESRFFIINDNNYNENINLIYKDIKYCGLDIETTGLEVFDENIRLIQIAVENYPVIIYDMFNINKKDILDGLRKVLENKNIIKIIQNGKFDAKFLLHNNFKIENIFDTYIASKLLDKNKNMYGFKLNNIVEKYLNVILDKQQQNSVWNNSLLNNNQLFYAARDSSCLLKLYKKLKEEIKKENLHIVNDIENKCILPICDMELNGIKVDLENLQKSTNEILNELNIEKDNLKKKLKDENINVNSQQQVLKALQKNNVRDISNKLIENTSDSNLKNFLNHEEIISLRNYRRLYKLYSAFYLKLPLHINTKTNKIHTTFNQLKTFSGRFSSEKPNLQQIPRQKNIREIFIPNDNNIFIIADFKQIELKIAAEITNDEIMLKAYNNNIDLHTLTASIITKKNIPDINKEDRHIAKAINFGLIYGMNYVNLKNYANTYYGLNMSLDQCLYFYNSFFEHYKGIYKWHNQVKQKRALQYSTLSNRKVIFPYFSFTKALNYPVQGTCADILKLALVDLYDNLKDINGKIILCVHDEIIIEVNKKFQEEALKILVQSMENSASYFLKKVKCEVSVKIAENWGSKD
- experimentNotes: Fluorescence-based high-throughput DNA polymerase assay (molecular beacon), primary screen and dose-response;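 note: compound concentration given in µM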
- Assay type: biochemical
- runParameters: DRC-2; 40'; concentration 10

{"compound": "CC(=O)Nc1cc(C(=O)NC(C)C)c2ccc(C)nc2c1", "% inhibition Apol 40' (%)": 34}
{"compound": "O=C(Nc1cccc(Cl)c1)Nc1nnc(-c2ccncc2)s1", "% inhibition Apol 40' (%)": 64}
{"compound": "O=C(Cn1ccc2c(=O)[nH]ccc21)Nc1cccc(Cl)c1 [Molecule 23, O=C(Cn1ccc2c1cc[nH]c2=O)Nc1cccc(c1)Cl]", "% inhibition Apol 40' (%)": 63}
{"compound": "O=C(Nc1nnc(-c2ccno2)o1)c1ccc2c(c1)OCO2", "% inhibition Apol 40' (%)": 14}
{"compound": "CS(=O)(=O)c1cccc(C(=O)Nc2nnc(-c3ccno3)o2)c1", "% inhibition Apol 40' (%)": 13}
{"compound": "CN(C)C1C(c2ccccc2)=C(c2ccccc2)SC(c2ccccc2)C1[N+](=O)[O-] (stereo not drawn)", "% inhibition Apol 40' (%)": 39}
{"compound": "O=C1C(=Cc2ccncc2)Oc2c1ccc1c2CN(Cc2ccc3c(c2)OCO3)CO1", "% inhibition Apol 40' (%)": 31}
{"compound": "CCCCCCCCCCCCCCCCCC(=O)CCN(C)C", "% inhibition Apol 40' (%)": 4.59}
{"compound": "O=C(O)c1cccc(N2N=C(C(F)(F)F)/C(=C/c3ccc(-c4ccccc4[N+](=O)[O-])o3)C2=O)c1", "% inhibition Apol 40' (%)": 51}
{"compound": "O=C1NCCCn2cc(S(=O)(=O)Nc3ccccc3)cc21", "% inhibition Apol 40' (%)": 24}
{"compound": "Cc1ccc(CCNC(=O)c2cnn3c(O)c(Cc4ccccc4F)c(C)nc23)cc1", "% inhibition Apol 40' (%)": 21}
{"compound": "O=C(NC(C(Cl)Cl)S(=O)(=O)c1ccccc1)c1ccccc1 (stereo not drawn)", "% inhibition Apol 40' (%)": 36}
{"compound": "O=C(CSc1nnc(-c2ccncc2)[nH]1)c1ccc(O)c(O)c1", "% inhibition Apol 40' (%)": 68}
{"compound": "CC(NC(=O)Cc1cc(=O)[nH]c(SCc2cccc(Cl)c2)n1)c1ccccc1 (stereo not drawn)", "% inhibition Apol 40' (%)": 36}
{"compound": "O=C(Nc1cccc(C(=O)Nc2ccc(S(=O)(=O)[O-])c3cc(S(=O)(=O)[O-])cc(S(=O)(=O)[O-])c23)c1)Nc1cccc(C(=O)Nc2ccc(S(=O)(=O)[O-])c3cc(S(=O)(=O)[O-])cc(S(=O)(=O)[O-])c23)c1.[Na+].[Na+].[Na+].[Na+].[Na+].[Na+]", "% inhibition Apol 40' (%)": 29}
{"compound": "CCCCOC(=O)CCCCCN1C(=O)C(=Cc2ccc(OC)cc2)SC1=S", "% inhibition Apol 40' (%)": 24}
{"compound": "COc1ccc(C(=O)N2CCc3c(nc4cc(-c5ccccc5Cl)[nH]n4c3=O)C2)cn1", "% inhibition Apol 40' (%)": 30}
{"compound": "CC(C)(C)OC(=O)COc1ccc2cc(-c3ccccc3)c(=O)oc2c1", "% inhibition Apol 40' (%)": 19}
{"compound": "Cc1ccc(-n2nnc(C(=O)O)c2-c2ccccn2)c(F)c1", "% inhibition Apol 40' (%)": 27}
{"compound": "O=C(NNC(=O)c1ccc(Cl)cc1)C(=O)NNC(=O)c1ccc(Cl)cc1", "% inhibition Apol 40' (%)": 35}
{"compound": "Cc1ccc(C(=O)/C=C/C=C/C=C/N(C)C)o1", "% inhibition Apol 40' (%)": 44}
{"compound": "N#CC(=NNc1cc(C(F)(F)F)cc(C(F)(F)F)c1)C(=O)c1ccco1", "% inhibition Apol 40' (%)": 34}
{"compound": "Nc1c(S(=O)(=O)O)cc(Nc2ccccc2)c2c1C(=O)c1ccccc1C2=O", "% inhibition Apol 40' (%)": 40}
{"compound": "O=C(CCc1csc(NC(=O)Nc2ccccc2)n1)Nc1nc2ccccc2s1", "% inhibition Apol 40' (%)": 46}
{"compound": "Cc1ccc(C)n1-c1ccc(C(=O)NNC(=O)c2ccc3nccnc3c2)cc1", "% inhibition Apol 40' (%)": 23}
{"compound": "O=C(Nc1c2c(nn1-c1ccc(Oc3ccccc3)cc1)CSC2)c1ccco1", "% inhibition Apol 40' (%)": 47}
{"compound": "O=C(Nc1ccc2c(c1)Cc1cc(NC(=O)c3ccco3)ccc1-2)c1ccco1", "% inhibition Apol 40' (%)": 40}
{"compound": "CCOC(=O)C1=C2c3cc(OC)c(OC)cc3CC(C)(C)N2C(=O)C1=O", "% inhibition Apol 40' (%)": 21}
{"compound": "N#Cc1c(C2CCCCC2)nc(Sc2ccc(C(F)(F)F)cc2[N+](=O)[O-])[nH]c1=O", "% inhibition Apol 40' (%)": 55}
{"compound": "COc1ccc(C=C2Oc3c(ccc4c3CN(Cc3ccco3)CO4)C2=O)c(OC)c1", "% inhibition Apol 40' (%)": 33}
{"compound": "COc1cccc(Oc2c(C(F)(F)F)oc3cc(OC(=O)N(C)C)ccc3c2=O)c1", "% inhibition Apol 40' (%)": 33}
{"compound": "Cc1cccc(C2=N/C(=C\\c3ccc([N+](=O)[O-])o3)C(=O)O2)c1", "% inhibition Apol 40' (%)": 37}
{"compound": "Cc1cc(C)c2c(c1)C1C=CCC1C(c1ccc(C(=O)O)cc1)N2 (stereo not drawn)", "% inhibition Apol 40' (%)": 59}
